Target: soluble form of TACE (TACE R651) (Homo sapiens, UniProt P78536)
Sequence (P78536 215-651): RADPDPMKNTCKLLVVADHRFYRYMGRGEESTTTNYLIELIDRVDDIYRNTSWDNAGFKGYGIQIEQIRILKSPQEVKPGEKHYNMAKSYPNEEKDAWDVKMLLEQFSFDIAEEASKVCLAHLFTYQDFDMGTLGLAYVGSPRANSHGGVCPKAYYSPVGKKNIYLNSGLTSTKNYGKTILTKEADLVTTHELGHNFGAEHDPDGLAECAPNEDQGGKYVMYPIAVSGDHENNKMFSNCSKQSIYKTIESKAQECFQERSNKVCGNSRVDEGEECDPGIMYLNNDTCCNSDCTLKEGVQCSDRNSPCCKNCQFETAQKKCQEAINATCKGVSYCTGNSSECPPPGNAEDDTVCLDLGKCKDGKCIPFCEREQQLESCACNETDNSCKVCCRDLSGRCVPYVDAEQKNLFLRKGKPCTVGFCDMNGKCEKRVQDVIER
Assay: Enzyme inhibition kinetic study, TACE
Format: biochemical
Conditions: Table II; 0.5 nM TACE, pH 9.0, 1 mM NaCl; fit with equation 3; read-out: Ki(app) TACE
measurement-type: pKi
One number for each entry, as −log10 of the molar value.

-- ask Return reported pKi. Input compound: CC(C)CC(CC(=O)NO)C(=O)NC(C(=O)NC(C)C(=O)NCCN)C(C)(C)C (stereo not shown) [TAPI-2, reference compound]
-- reply 8.37
